Provenance of the data: paper PMC6797515

# Test system: rat chondrocytes
# Method Description: CCK8 cell viability / cytotoxicity assay
# Assay type: cell-based
# Condition Notes: Rattus norvegicus, Chondrocyte; CCK8, chondrocytes, 24 h; Figure 1A; read-out: EC50 of BAK
# Experimental: Rat chondrocytes were isolated using a method adapted from a previous study.9 Briefly, articular cartilage was retrieved from the knees of healthy Sprague-Dawley rats (male, n = 5, weight: 150 g). […] Cell viability in response to BAK was evaluated using a cell counting kit-8 (CCK8) assay which was also utilized to assess cell viability. […] Aliquots were pipetted into a 96-well plate and absorbance at 490 nm measured using a plate reader (Bio-Rad).
Readout Label: pEC50
In plain terms, pEC50 is the concentration in mol/L turned into minus its base-10 logarithm.

QUERY: Quote pEC50 reported for C=C[C@@](C)(/C=C/c1ccc(O)cc1)CCC=C(C)C [BAK, bakuchiol] please.
RESULT: 5.05
